assay: Concentration in brain extracts after single i.v. bolus; type: in vivo, Sprague-Dawley rats; details: both sexes, Sprague-Dawley, rat, brain, intravenous, 0.1 mg/kg, Anatabine 0.1 mg/kg; male and female; 0.5 hr; read-out: Avg. Conc. rat brain, combined male and female
parameterMeasured: concentration at 0.5 h (ng/g)
State just the number; it will be interpreted in ng/g.

Q: Query (compound): C1=CCC(c2cccnc2)NC1 (racemic) [Anatabine, 1,2,3,6-tetrahydro-[2,3′]bipyridinyl] ; field requested: concentration at 0.5 h
A: 25.8

---

assay: Concentration in brain extracts after single i.v. bolus; assay type: in vivo, Sprague-Dawley rats; details: male, Sprague-Dawley, rat, brain, intravenous, 0.75 mg/kg, Anatabine 0.75 mg/kg; male; 0.5 hr; read-out: Avg. Conc. rat brain
parameterMeasured: concentration at 0.5 h (ng/g)
State just the number; it will be interpreted in ng/g.

Q: For the molecule C1=CCC(c2cccnc2)NC1 (racemic) [Anatabine, 1,2,3,6-tetrahydro-[2,3′]bipyridinyl] , what concentration at 0.5 h is on record?
A: 276

---

test: Plasma toxicokinetics after single i.v. bolus; format: in vivo, Sprague-Dawley rats; details: female, Sprague-Dawley, rat, plasma, iv, 0.75 mg/kg
parameterMeasured: Vd (L/kg)
Numbers only; they are read as L/kg.

Q: Can you share its Vd? I mean this compound: C1=CCC(c2cccnc2)NC1 (racemic) [Anatabine, 1,2,3,6-tetrahydro-[2,3′]bipyridinyl]
A: 3.19

---

test: Plasma toxicokinetics after single i.v. bolus; format: in vivo, Sprague-Dawley rats; conditions: female, Sprague-Dawley, rat, plasma, iv, 0.1 mg/kg
parameterMeasured: MRT (h)
Unit h implied. Number only.

Q: Name the recorded MRT for C1=CCC(c2cccnc2)NC1 (racemic) [Anatabine, 1,2,3,6-tetrahydro-[2,3′]bipyridinyl] .
A: 2.55

---

experiment: Plasma pharmacokinetics after oral multi-dose anatabine polacrilex; format: in vivo, Sprague-Dawley rats; conditions: male, Sprague-Dawley, rat, plasma, po, 0.6 mg/kg, male rats, mean; read-out: t1/2, terminal (converted)
parameterMeasured: half-life (h)
Give just the numeric value; h need not be written.

Q: Consider the compound C1=CCC(c2cccnc2)NC1 (racemic) [Anatabine, 1,2,3,6-tetrahydro-[2,3′]bipyridinyl] and give its measured half-life.
A: 1.78

---

test: Plasma pharmacokinetics after oral multi-dose anatabine polacrilex; format: in vivo, Sprague-Dawley rats; details: both sexes, Sprague-Dawley, rat, plasma, oral, 2 mg/kg BW, Avg. Conc. of anatabine in plasma, Male and Female, dose group 2, combined male and female, 60 min
parameterMeasured: concentration at 60 min (ng/mL)
Write the number in ng/mL without appending the unit.

Q: Endpoint output: concentration at 60 min of C1=CCC(c2cccnc2)NC1 (racemic) [Anatabine, 1,2,3,6-tetrahydro-[2,3′]bipyridinyl] . Value?
A: 139

---

assay: Concentration in brain extracts after single i.v. bolus; assay type: in vivo, Sprague-Dawley rats; settings: Sprague-Dawley, rat, brain, intravenous, 1 mg/kg, Concentration of anatabine in rat brain extract, Anatabine 1.0 mg/kg, Rat Brain, 24 hr, individual rats
parameterMeasured: concentration at 24 h

Q: Entry C1=CCC(c2cccnc2)NC1 (racemic) [Anatabine, 1,2,3,6-tetrahydro-[2,3′]bipyridinyl] : reported concentration at 24 h = ?
A: 3 ng/mL

---

experiment: Plasma toxicokinetics after single i.v. bolus; assay type: in vivo, Sprague-Dawley rats; settings: female, Sprague-Dawley, rat, plasma, intravenous, 0.1 mg/kg, Anatabine 0.1 mg/kg; female; 1 hr; read-out: Avg. Conc. rat plasma
parameterMeasured: concentration at 1 h (ng/mL)
The response must be a number in ng/mL with no trailing unit.

Q: Endpoint output: concentration at 1 h of C1=CCC(c2cccnc2)NC1 (racemic) [Anatabine, 1,2,3,6-tetrahydro-[2,3′]bipyridinyl] . Value?
A: 11
